Task for the reader: assign each of the following compounds its reported Plant response rating, Ducksalad (0 to 100 scale, 0 is no effect, 100 is complete control).
# System: ducksalad (Heteranthera limosa)
# assay details: Test B flooded paddy: ducksalad
# Assay type: in vivo
# experimental setup: Flood; 250 g ai/ha; applied to paddy water at 2-leaf stage; visually evaluated after 13 to 15 days
In your answer, state the number alone without any accompanying words.

QUERY: Plant response rating, Ducksalad (0 to 100 scale, 0 is no effect, 100 is complete control) lookup needed for Cc1nn(-c2ccc(F)c(C(F)(F)F)c2)nc1Oc1ccnc(C(F)(F)F)c1 , thanks.
RESULT: 40

QUERY: Plant response rating, Ducksalad (0 to 100 scale, 0 is no effect, 100 is complete control) lookup needed for CCc1nn(-c2cccc(C(F)(F)F)c2)nc1Cc1cccc(C(F)(F)F)c1 , thanks.
RESULT: 0

QUERY: Plant response rating, Ducksalad (0 to 100 scale, 0 is no effect, 100 is complete control) lookup needed for CC(C)c1nn(-c2ccc(F)cc2)nc1Cc1cccc(C(F)(F)F)c1 , thanks.
RESULT: 0

QUERY: Plant response rating, Ducksalad (0 to 100 scale, 0 is no effect, 100 is complete control) lookup needed for O=C(c1ccnc(C(F)(F)F)c1)c1nn(-c2ccc(F)cc2)nc1F , thanks.
RESULT: 0

QUERY: Plant response rating, Ducksalad (0 to 100 scale, 0 is no effect, 100 is complete control) lookup needed for CC(C)c1nn(-c2ccc(F)cc2)nc1Cc1ccnc(C(F)(F)F)c1 , thanks.
RESULT: 0

QUERY: Plant response rating, Ducksalad (0 to 100 scale, 0 is no effect, 100 is complete control) lookup needed for CCc1nn(-c2ccc(F)cc2)nc1Cc1cccc(C(F)(F)F)c1 , thanks.
RESULT: 40

QUERY: Plant response rating, Ducksalad (0 to 100 scale, 0 is no effect, 100 is complete control) lookup needed for Cc1nn(-c2ccc(F)cc2Cl)nc1Cc1ccnc(C(F)(F)F)c1 , thanks.
RESULT: 60
